- TARGET_DESC: AiiK (Kurthia huakuii, UniProt Z9B3F0ZFT1)
- Construct: primer-encoded N-terminus MCQNKKLY
- Sequence (Z9B3F0ZFT1 1-278 limits assumed): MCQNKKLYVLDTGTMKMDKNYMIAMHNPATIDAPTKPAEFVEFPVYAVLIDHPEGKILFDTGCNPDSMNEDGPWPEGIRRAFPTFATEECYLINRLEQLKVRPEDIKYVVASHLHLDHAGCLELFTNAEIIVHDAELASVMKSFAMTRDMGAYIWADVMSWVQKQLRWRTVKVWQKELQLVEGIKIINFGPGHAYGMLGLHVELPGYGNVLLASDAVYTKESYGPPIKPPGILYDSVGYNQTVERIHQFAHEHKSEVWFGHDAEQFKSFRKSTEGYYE
- METHOD: HPLC of remaining AHL at […] nm, Michaelis-Menten fit
- Assay type: biochemical
- PROTOCOL_CONDITIONS: 10 mM PBS pH 7.4, 25 °C, 10 min, 4 μg/mL enzyme, 25–150 μM substrate; unit given as mM^−1 in the source; unit of the source corrected
ENDPOINT_NAME: Mean ± SD / Km(mM^-1) (mM)

CCCC(=O)CC(=O)N[C@H]1CCOC1=O [3-Oxo-C6-HSL] ... 0.066

[1] CCCCCC(=O)N[C@H]1CCOC1=O [C6-HSL]
[2] CCCCCCCCCCCCCC(=O)N[C@H]1CCOC1=O [C14-HSL]
[3] CCCCCCCCCC(=O)N[C@H]1CCOC1=O [C10-HSL]
Put these in order: smallest Mean ± SD / Km(mM^-1) first, largest last. Lab note: final answer is the ordered label list. 2, 1, 3
(2: 0.036 mM, 1: 0.204 mM, 3: 0.315 mM)
